Assay: Viability qHTS for spleen associated tyrosine kinase inhibitor (SYKi) drug resistant MV4-11 cells (AID 1963824); note: nearly all actives have a fitted effect of over 35% in size
Details: SYKi-resistant MV4-11 viability, CellTiter-Glo, 72 h; series mostly up to 45 µM
Results filed as inconclusive are left out. Activity calls are given as the source filed them. Calls come from the whole dose curve; as a rule, active = well fitted cell-killing curve with a large enough effect; inconclusive = small, poorly fitted or top-dose-only effect, or effect the other way; inactive = no such curve, though single readings can be large or run the other way.
Output constraint: value belongs to active, inactive

• O=C1NS(=O)(=O)c2ccccc21 = inactive

Enquiry: How did this test come out for Nc1nc(Cl)nc2c1ncn2[C@@H]1O[C@H](CO)[C@@H](O)[C@H]1F ?
Return: active

Enquiry: How did this test come out for COC(=O)/C=C/C=C/C(=O)OC1C=C2COC(=O)C2(O)C2(C)CCCC(C)(C)C12 (stereo not given) ?
Return: active
